Target or system UniProtKB P06536; recorded quantity IC50.
Sequence (P06536 whole entry): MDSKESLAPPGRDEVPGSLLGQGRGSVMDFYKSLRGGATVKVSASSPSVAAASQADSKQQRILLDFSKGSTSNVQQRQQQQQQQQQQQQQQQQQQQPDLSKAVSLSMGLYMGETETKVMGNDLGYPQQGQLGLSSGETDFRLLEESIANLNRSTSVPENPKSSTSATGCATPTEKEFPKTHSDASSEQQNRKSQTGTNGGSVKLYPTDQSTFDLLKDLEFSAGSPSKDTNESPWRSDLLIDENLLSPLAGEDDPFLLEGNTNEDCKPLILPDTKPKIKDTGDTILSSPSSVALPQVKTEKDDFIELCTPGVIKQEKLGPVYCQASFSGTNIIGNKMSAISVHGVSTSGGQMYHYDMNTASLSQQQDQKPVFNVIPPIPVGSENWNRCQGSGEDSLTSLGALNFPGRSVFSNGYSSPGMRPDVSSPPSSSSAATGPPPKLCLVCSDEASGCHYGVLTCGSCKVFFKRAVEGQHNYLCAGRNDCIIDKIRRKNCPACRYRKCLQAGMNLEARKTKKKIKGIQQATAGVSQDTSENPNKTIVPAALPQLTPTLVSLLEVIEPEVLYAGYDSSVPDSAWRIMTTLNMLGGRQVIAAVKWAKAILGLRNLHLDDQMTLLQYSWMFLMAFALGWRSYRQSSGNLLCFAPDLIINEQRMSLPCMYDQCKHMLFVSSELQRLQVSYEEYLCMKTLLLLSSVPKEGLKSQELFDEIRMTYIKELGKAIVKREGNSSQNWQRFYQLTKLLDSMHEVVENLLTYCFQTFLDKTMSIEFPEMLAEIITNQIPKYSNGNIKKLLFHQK

compound | IC50
CCCC1O[C@@H]2C[C@H]3[C@@H]4CCC5=CC(=O)C=C[C@]5(C)[C@H]4[C@@H](O)C[C@]3(C)[C@]2(C(=O)CO)O1 (stereo partly specified) [BUDESONIDE] | 2.9 nM
CCC[C@@H]1O[C@@H]2CC3C4CCC5=CC(=O)C=C[C@]5(C)[C@@]4(F)[C@@H](O)C[C@]3(C)[C@]2(SCF)O1 (stereo partly specified) | 3.3 nM
CCC[C@@H]1O[C@@H]2CC3C4C[C@H](F)C5=CC(=O)CC[C@]5(C)[C@@]4(F)[C@@H](O)C[C@]3(C)[C@]2(SC)O1 (stereo partly specified) | 2.2 nM
CCS[C@]1(SC)CC[C@H]2[C@@H]3CCC4=CC(=O)C=C[C@]4(C)[C@@]3(F)[C@@H](O)C[C@@]21C | 2.3 nM
CC=C[C@@H]1O[C@@H]2C[C@H]3[C@@H]4CCC5=CC(=O)C=C[C@]5(C)[C@@]4(F)[C@@H](O)C[C@]3(C)[C@]2(SC)O1 | 1.8 nM
CS[C@@]12OC(C)(C)O[C@@H]1CC1C3CCC4=CC(=O)C=C[C@]4(C)[C@@]3(F)[C@@H](O)C[C@@]12C (stereo partly specified) | 1.6 nM
